test system: SNB-75 CNS; experiment: NCI tumour cell line growth inhibition, 48 h
Outcome: met for TGI of at least 30 µM; not met for anything lower.

Compound: Cc1oc2nc(N(C)C)nc(Cl)c2c1C
Class: met
--
Compound: Cc1nnc([C@@]2(C)CC[C@H]3[C@@H](CC=C4C[C@@H](O)CC[C@@]43C)[C@@H]2CC#N)o1
Class: met
--
Compound: CCOC(=O)/C(O)=C(/C=NC(=S)c1ccncc1)C(=O)OCC
Class: met
--
Compound: Brc1ccc2c(-c3nc(-c4c[nH]c5ccc(Br)cc45)cs3)c[nH]c2c1
Class: met
--
Compound: CC(=O)OC1CC2OC(Cc3ccccc32)O1 (stereo not given)
Class: met
--
Compound: Nc1nc(Cl)cc(NCC2(CO)CC(OCc3ccccc3)C2)n1 (stereo not given)
Class: met
--
Compound: C[C@]12CC[C@@H]3c4ccc(O)cc4CC[C@H]3[C@@H]1CC[C@@H]2NS(=O)(=O)c1ccc(C(F)(F)F)cc1
Class: not met
--
Compound: CN(C)C(=S)/N=c1\ss/c(=N\C(=S)N(C)C)n1-c1ccc2c(c1)OCO2
Class: met
--
Compound: Cc1cccc(C(C)(C)C)c1NC(=O)CCc1n[nH]c(=S)o1
Class: met
--
Compound: COC1(OC)C2(Cl)CCC1(Cl)C(OC(C)=O)C2 (stereo not given)
Class: met

Hi, just wondering whether "Cc1cc(NS(=O)(=O)c2ccc(N=Nc3c(O)c(C(=O)O)cc4ccccc34)cc2)nc(C)n1" shows TGI of 30 µM or higher.
met

----------
Would you mind telling me the reported TGI of each entry?
test system: XF 498 CNS; assay: NCI tumour cell line growth inhibition, 48 h

Compound: O=S(O)CCCCSSCCCCSSCCCCS(=O)O
Target Of Assay: XF 498 CNS
TGI: 21.4 µM
--
Compound: COc1ccc(OC)c(/C=C/NC=O)c1
Target Of Assay: XF 498 CNS
TGI: > 100 µM
--
Compound: CSc1ccc(/C=C2/C[N+](C)(C)C/C(=C/c3ccc(SC)cc3)C2=O)cc1
Target Of Assay: XF 498 CNS
TGI: 29.1 µM
--
Compound: CC(C)CCN=c1cc2n(-c3ccc(Cl)cc3)c3ccccc3nc-2cc1Nc1ccc(Cl)cc1
Target Of Assay: XF 498 CNS
TGI: 20.6 µM
--
Compound: N#CCCN(CCC#N)c1ccc(/C=C2\N=C(CN3C(=O)c4ccccc4C3=O)OC2=O)cc1
Target Of Assay: XF 498 CNS
TGI: > 100 µM

// input: 5 compounds below; output: TGI for each
1. CCC(C)(O)c1cn(-c2cccc(S(=O)(=O)O)c2)nn1 (stereo unspecified)
2. CCOCNC(=O)N(COCC)COCC
3. CC(C(=O)O)c1cnn(-c2ccccc2)c1-n1cccc1 (stereo unspecified)
4. Cc1ccc(NC(=O)C2C(=O)N(c3ccc(C)c(C)c3)C(=O)/C2=N/O)cc1C (stereo unspecified)
5. CCc1cccc(C)c1NC(C)=O

1: > 100 µM; 2: > 100 µM; 3: > 100 µM; 4: > 100 µM; 5: > 100 µM

Given "CNC=O.[O]=[Ge].[O]=[Ge].[O]=[Ge].[O]=[Ge][OH].[O]=[Ge][OH]" , state its recorded TGI.
> 100 µM

----------
For each of the compounds below, state its TGI.
test system: LOX IMVI melanoma; experiment: NCI tumour cell line growth inhibition, 48 h

# count of solved cases: 4
Compound: CN1C(NC(=O)c2ccc(Cl)nc2)=NS(=O)(=O)c2cc(Cl)ccc21
Target Of Assay: LOX IMVI melanoma
TGI: > 100 µM

Compound: CC[N+](C)(CC)Cc1ccccc1[N+](=O)[O-]
Target Of Assay: LOX IMVI melanoma
TGI: > 100 µM

Compound: C1=C2C3=[N+](CCCC3)CC2Cc2ccsc21 (stereo not given)
Target Of Assay: LOX IMVI melanoma
TGI: > 100 µM

Compound: NC(N)=NC(N)=Nc1cc2ccccc2c2ccccc12
Target Of Assay: LOX IMVI melanoma
TGI: 22 µM

// next entry
Which TGI is listed for "CCCCn1c(C)c(C(=O)OCC)c2cc(OCc3ccc(C(=O)Nn4c(C)ccc4C)cc3)c(Br)cc21" ?
> 100 µM
